# assaySystem: CRBN-DDB1 (Homo sapiens (Human), UniProt Q96SW2)
# Sequence (Q96SW2 whole entry, looked up): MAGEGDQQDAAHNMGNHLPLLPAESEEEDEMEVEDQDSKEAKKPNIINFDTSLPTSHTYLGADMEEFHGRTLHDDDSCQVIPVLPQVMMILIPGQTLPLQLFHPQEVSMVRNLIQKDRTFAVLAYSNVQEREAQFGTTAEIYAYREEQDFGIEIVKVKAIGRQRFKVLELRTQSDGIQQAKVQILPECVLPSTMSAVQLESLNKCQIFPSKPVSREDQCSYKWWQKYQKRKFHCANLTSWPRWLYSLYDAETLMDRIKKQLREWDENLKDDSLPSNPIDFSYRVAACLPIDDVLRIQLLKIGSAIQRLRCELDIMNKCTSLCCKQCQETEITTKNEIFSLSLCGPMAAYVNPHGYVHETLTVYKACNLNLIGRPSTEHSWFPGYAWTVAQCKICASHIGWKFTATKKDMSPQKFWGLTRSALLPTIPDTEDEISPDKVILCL
# Sequence (Q16531 whole entry partner, looked up): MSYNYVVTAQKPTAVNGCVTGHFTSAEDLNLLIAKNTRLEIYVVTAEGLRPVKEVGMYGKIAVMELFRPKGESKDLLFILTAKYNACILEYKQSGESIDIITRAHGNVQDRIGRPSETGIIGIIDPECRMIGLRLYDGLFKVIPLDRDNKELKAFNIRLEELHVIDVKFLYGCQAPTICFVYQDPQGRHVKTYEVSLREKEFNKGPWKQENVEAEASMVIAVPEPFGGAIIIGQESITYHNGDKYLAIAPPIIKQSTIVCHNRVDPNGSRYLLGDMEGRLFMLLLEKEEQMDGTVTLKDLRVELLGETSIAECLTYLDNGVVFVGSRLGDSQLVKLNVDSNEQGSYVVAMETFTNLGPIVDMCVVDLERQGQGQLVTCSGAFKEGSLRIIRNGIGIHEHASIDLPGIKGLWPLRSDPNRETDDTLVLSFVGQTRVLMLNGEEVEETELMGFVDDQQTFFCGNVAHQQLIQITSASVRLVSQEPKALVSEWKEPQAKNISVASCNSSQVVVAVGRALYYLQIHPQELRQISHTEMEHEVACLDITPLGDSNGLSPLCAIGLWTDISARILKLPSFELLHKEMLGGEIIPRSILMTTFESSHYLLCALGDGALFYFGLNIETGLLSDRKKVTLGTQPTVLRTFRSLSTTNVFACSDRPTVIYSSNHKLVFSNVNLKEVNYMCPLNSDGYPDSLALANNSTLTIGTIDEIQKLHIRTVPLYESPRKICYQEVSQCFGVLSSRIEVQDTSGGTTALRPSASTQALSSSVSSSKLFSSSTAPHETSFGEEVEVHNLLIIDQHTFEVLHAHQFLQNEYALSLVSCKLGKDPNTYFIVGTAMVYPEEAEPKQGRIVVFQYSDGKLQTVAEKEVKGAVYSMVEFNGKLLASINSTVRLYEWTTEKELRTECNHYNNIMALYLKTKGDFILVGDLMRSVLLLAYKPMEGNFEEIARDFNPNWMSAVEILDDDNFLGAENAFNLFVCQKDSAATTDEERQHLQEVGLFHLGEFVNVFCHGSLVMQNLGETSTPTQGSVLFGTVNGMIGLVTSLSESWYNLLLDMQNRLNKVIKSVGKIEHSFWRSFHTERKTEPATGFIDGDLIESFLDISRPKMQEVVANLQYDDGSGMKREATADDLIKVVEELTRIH
quantityKind: Kd

Hello, I am looking for reported Kd with CRBN-DDB1 (Homo sapiens (Human), UniProt Q96SW2) for CC(C)(C)OC(=O)N1CCC(n2cc(CNc3cccc4c3C(=O)N(C3CCC(=O)NC3=O)C4=O)nn2)CC1 (stereo not shown) . Could you help?
< 10 µM

Where do the numbers come from? From patent US20250127903A1.
